Target: T1, ZFP SBS#663 (synthetic)
T1 chain: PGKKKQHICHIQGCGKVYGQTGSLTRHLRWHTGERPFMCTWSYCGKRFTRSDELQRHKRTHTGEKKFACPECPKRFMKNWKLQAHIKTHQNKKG
Assay: EMSA
Conditions: tags: MBP fusion
Result type: Kd (nM)
Hi! Could you send only the number? It should be in nM, unit omitted.

Q: Requested field: Kd. Item: AGAGCGGCAC (dsDNA) DNA 1: AGAGCGGCAC DNA 2: GTGCCGCTCT
Ans: 115
